Molecular target: Serine/threonine-protein kinase PAK 5 (Homo sapiens) (UniProt Q9P286)
Sequence (Q9P286 whole entry, looked up): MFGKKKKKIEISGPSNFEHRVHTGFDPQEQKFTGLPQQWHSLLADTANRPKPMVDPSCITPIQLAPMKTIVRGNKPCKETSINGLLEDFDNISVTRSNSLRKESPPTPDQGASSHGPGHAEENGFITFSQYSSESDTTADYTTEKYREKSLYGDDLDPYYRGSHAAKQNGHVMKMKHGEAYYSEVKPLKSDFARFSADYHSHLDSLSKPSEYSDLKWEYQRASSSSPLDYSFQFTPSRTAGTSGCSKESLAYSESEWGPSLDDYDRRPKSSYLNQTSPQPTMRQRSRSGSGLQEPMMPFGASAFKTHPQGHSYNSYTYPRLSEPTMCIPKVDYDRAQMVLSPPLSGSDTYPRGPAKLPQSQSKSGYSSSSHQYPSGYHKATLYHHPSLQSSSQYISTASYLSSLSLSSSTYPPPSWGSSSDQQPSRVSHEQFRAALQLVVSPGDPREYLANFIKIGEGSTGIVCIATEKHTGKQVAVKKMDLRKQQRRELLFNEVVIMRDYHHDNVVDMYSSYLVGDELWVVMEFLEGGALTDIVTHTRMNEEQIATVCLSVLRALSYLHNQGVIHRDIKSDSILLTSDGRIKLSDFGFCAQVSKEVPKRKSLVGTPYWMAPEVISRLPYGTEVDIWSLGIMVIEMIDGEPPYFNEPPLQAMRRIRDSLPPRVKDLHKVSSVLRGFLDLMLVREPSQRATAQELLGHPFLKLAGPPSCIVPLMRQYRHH
Conditions: at 1 µM
Description: GSK_PKIS: PAK5 mean inhibition at 1 uM [Nanosyn]
Entries and their inhibition values follow.
# output: bare number, implied unit %

Compound | Target | Assay Metric | Readout Value
CS(=O)(=O)CCNCc1ccc(-c2ccc3ncnc(Nc4ccc(OCc5ccccc5)c(Br)c4)c3c2)o1 | Serine/threonine-protein kinase PAK 5 (Homo sapiens) (UniProt Q9P286) | inhibition | 0.13

## Input Return inhibition for the following molecule: "Cc1ccc(C(=O)NC2CCC2)cc1-c1ccc(C(=O)NCC2CC2)cc1"
## Output -2.79

## Input Return inhibition for the following molecule: "COC(=O)Nc1nc2ccc(Sc3ccc(NC(=O)Nc4cc(C(F)(F)F)ccc4F)cc3)cc2[nH]1"
## Output -2.02

## Input Return inhibition for the following molecule: "O=C(Nc1ccc(Oc2ccc3[nH]c(NC(=O)c4ccccc4)nc3c2)cc1)Nc1cc(C(F)(F)F)ccc1F"
## Output 4.86

## Input Return inhibition for the following molecule: "CS(=O)(=O)CCNCc1cc(-c2cc3c(Nc4ccc(OCc5cccc(F)c5)c(Cl)c4)ncnc3s2)cs1"
## Output 3.34

Value source: ChEMBL document CHEMBL1961873
